Tested on: ING4
PROCEDURE_DETAILS: Histone peptide microarray
Assay type: binding, human
CONDITION_DETAILS: ING4, GST-tagged; arrays performed twice, n of 4
Where no end group is shown, it is not given here. [ ]: non-standard residue; d: D form. pS = N[C@@H](COP(=O)(O)O)C(=O)O
OBSERVABLE: Array Heatmap value (peptide array binding signal)

# annotated cases, reported Array Heatmap value (peptide array binding signal) shown
[
  {
    "SUBSTANCE": "H2A.Z (1-19) (N-ac): H2AZ 1-19 (Ac-AGGKAGKDSGKAKTKAVSR; UniProt P0C0S5 2-20, looked up, fragment)",
    "RESULT": 0.3991
  },
  {
    "SUBSTANCE": "H2AX (132-142): H2AX 132-142 (GKKATQASQEY; UniProt P16104 133-143, looked up, fragment)",
    "RESULT": 0.4334
  },
  {
    "SUBSTANCE": "H2A.Z (1-19): H2AZ 1-19 (AGGKAGKDSGKAKTKAVSR; UniProt P0C0S5 2-20, looked up, fragment)",
    "RESULT": 0.5367
  },
  {
    "SUBSTANCE": "Myc-Tag: 1-10 (ILKKATAYIL; Myc epitope tag; UniProt P01106 410-419, looked up, fragment)",
    "RESULT": 0.4476
  }
]

(a) H2A.Z K4ac + K8ac + K12ac (1-19) (N-ac): H2AZ 1-19 (Ac-AGGKAGKDSGKAKTKAVSR; not fully specified (residue 4); UniProt P0C0S5 2-20, looked up, fragment)
(b) H2AS1p + K5ac: H2A 1-17 ([pS]GRGK(Ac)QGGKARAKAKTR; UniProt P0C0S8 2-18, looked up, fragment)
Among a and b , whose measured Array Heatmap value (peptide array binding signal) is the smaller figure? I would appreciate it if you answered with the label of your choice.
b
(b: 0.3411, a: 0.5392)
